testTarget: Human HDAC1 (Homo sapiens)
Construct: full length with C-terminal His-tag and C-terminal FLAG-tag; His-tag (C); FLAG-tag (C); host or cells: baculovirus expression system
Sequence (Q13547 whole entry): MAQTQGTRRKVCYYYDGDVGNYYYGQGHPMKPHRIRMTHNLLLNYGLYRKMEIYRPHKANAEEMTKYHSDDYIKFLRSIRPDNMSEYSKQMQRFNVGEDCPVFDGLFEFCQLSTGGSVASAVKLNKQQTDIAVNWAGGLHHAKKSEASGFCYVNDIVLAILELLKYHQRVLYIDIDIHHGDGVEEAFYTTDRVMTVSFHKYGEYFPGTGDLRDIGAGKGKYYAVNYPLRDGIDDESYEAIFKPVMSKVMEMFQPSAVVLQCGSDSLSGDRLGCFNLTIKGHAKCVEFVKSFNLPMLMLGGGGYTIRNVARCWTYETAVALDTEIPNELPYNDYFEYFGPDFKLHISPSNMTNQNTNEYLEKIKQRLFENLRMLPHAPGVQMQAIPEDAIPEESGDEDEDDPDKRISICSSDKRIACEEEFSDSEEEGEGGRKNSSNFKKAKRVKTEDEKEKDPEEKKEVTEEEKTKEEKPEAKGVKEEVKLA
assayExplanation: Biochemical HDAC inhibition assay, acetylated AMC-labeled peptide substrate, HDAC1
conditionParameters: 2 hours at 30° C., read-out: IC50 (nM) HDAC 1
quantityMeasured: IC50

In plain terms, Cc1noc(C)c1-c1ccnc(N(Cc2ccc(C(=O)NO)cc2)c2cnccn2)c1 has a documented IC50 of ≥ 10000 nM

Entry under test: CC(=O)Nc1cc(-c2ccnc(N(Cc3ccc(C(=O)NO)cc3)c3cnccn3)c2)ccn1 . Its IC50 was 1000 to 10000 nM

The reported IC50 of the compound Cc1n[nH]c(C)c1-c1ccnc(N(Cc2ccc(C(=O)NO)cc2)c2cnccn2)c1 was 1000 to 10000 nM

Quick note, IC50 for CS(=O)(=O)Nc1cc(-c2ccnc(N(Cc3ccc(C(=O)NO)cc3F)c3cnccn3)c2)ccn1 landed at ≥ 10000 nM

The recorded IC50 for Nc1ccc(-c2ccnc(N(Cc3ccc(C(=O)NO)cc3F)c3cnccn3)c2)cn1 is 500 to 1000 nM

---

# maps each entry to its IC50
testTarget: Human HDAC1 (Homo sapiens)
Construct: full length with C-terminal His-tag and C-terminal FLAG-tag; His-tag (C); FLAG-tag (C); host or cells: baculovirus expression system
assayExplanation: Biochemical HDAC inhibition assay, acetylated AMC-labeled peptide substrate, HDAC1
conditionParameters: 2 hours at 30° C., read-out: IC50 (nM) HDAC 1

structure: Nc1cc(-c2ccnc(N(Cc3ccc(C(=O)NO)cc3F)c3cnccn3)c2)ccn1
recordedMeasurement: 1000 to 10000 nM
//
structure: Cc1cc(-c2ccnc(N(Cc3ccc(C(=O)NO)cc3)c3cnccn3)c2)c(C)o1
recordedMeasurement: 1000 to 10000 nM
//
structure: CS(=O)(=O)Nc1ccc(-c2ccnc(N(Cc3ccc(C(=O)NO)cc3F)c3cnccn3)c2)cn1
recordedMeasurement: ≥ 10000 nM
//
structure: O=C(NO)c1ccc(CN(c2cnccn2)c2cc(-c3cn[nH]c3)ccn2)cc1
recordedMeasurement: 1000 to 10000 nM
//
structure: Nc1ncc(-c2ccnc(N(Cc3ccc(C(=O)NO)cc3)c3cnccn3)c2)cn1
recordedMeasurement: 1000 to 10000 nM
//
structure: O=C(NO)c1ccc(CN(c2cnccn2)c2cc(-c3c[nH]nc3C(F)(F)F)ccn2)cc1
recordedMeasurement: 1000 to 10000 nM

Input Cc1n[nH]cc1-c1ccnc(N(Cc2ccc(C(=O)NO)cc2)c2cnccn2)c1 . Output IC50: ≥ 10000 nM

The molecule identified as Nc1ncc(-c2ccnc(N(Cc3ccc(C(=O)NO)cc3)c3cnccn3)c2)cc1F registered its IC50 at 1000 to 10000 nM
